test: Rat plasma half-life assay; format: in vitro ADME; settings: rat plasma, 37° C., LC-MS; read-out: Rat Plasma T½ (converted)
Where no end group is shown, it is not given here. [ ]: non-standard residue; d: D form. Ac6c = NC1(C(=O)O)CCCCC1; Nle = CCCC[C@H](N)C(=O)O; Aib = CC(C)(N)C(=O)O
assay metric: half-life at 0.1 mg/ml (h)
Field format: number, assumed h, no unit text.

See these solved cases before continuing.
YAPGTFISDYSI[Aib]MDKIHQQDFVNWLLAQKGKKNDWKHNITQ [Example 75, (Pro^3, Aib^13)hGIP(1-42)-OH]
1.9
Y[Aib]EGTF[Ac6c]SDYSIAMDKIHQQDFVNWLLAQKGKKNDWKHNI[Aib]Q-OH [Example 23, (Aib^2, 41, A6c^7)hGIP(1-42)-OH]
6.7

Lookup: State its half-life at 0.1 mg/ml for this substance: Y[Aib]EGTF[Ac6c]SDYSIA[Nle]DKIHQQDFVNWLLAQKGKKNDWKHNI[Ac6c]Q-OH [Example 29, (Aib^2, A6c^7, 41, Nle^14)hGIP(1-42)-OH]
Found: 7.3

###

experiment: Rat plasma half-life assay; assay type: in vitro ADME; conditions: rat plasma, 37° C., LC-MS; read-out: Rat Plasma T½ (converted)
Where no end group is shown, it is not given here. [ ]: non-standard residue; d: D form. Tic = O=C(O)[C@@H]1Cc2ccccc2CN1; Ac6c = NC1(C(=O)O)CCCCC1; Nle = CCCC[C@H](N)C(=O)O; Ac5c = NC1(C(=O)O)CCCC1; Aib = CC(C)(N)C(=O)O
assay metric: half-life at 0.1 mg/ml (h)
Return type: number; implicit unit h.

Y[Aib]EGTFISDY[Ac5c]IA[Nle]DKIHQQDFVNWLLAQKGKKNDWKHNITQ-OH [Example 54, (Aib^2, A5c^11, Nle^14)hGIP(1-42)-OH]
44.1
Y[Aib]EGTFISDYSIA[Ac6c]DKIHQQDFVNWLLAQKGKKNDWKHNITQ-OH [Example 42, (Aib^2, A6c^14)hGIP(1-42)-OH]
6.2
Y[Ac5c]EGTF[Ac5c]SDYSIA[Ac6c]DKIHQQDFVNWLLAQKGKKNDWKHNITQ-OH [Example 56, (A5c^2,7, A6c^14)hGIP(1-42)-OH]
9.2
Y[Aib]EGTF[Ac6c]SDYSIA[Nle]DKIHQQDFVNWLLAQKGKKNDWKHNI[Aib]Q-OH [Example 25, (Aib^2, 41, A6c^7, Nle^14)hGIP(1-42)-OH]
8.4
YGEGTFISDY[Ac5c]IAMDKIHQQDFVNWLLAQKGKKNDWKHNITQH-OH [Example 117, (Gly^2, A5c^11, His^43)hGIP(1-43)-OH]
10.5
Y[Aib]EGTF[Ac6c]SDYSIA[Nle]DKIHQQDFVNWL[Ac6c]AQKGKKNDWKHNITQ-OH [Example 27, (Aib^2, A6c^7, 27, Nle^14)hGIP(1-42)-OH]
9.3
Y[Aib]EGTFISDYS[Ac5c]AMDKIHQQDFVNWLLAQKGKKNDWKHNITQ-OH [Example 7, (Aib^2, A5c^12)hGIP(1-42)-OH]
5.3
Y[Aib]EGTF[Aib]SDYSIAMDKIHQQDFVNWLLAQKGKKNDWKHNITQ-OH [Example 3, (Aib^2, 7)hGIP(1-42)-OH]
5.5

Lookup: Using the record for YA[Tic]GTFISDY[Ac5c]IAMDKIHQQDFVNWLLAQKGKKNDWKHNITQ-OH [Example 82, (Tic^3, A5c^11)hGIP(1-42)-OH] , state its measured half-life at 0.1 mg/ml.
Found: 10.2

Lookup: Give the measured half-life at 0.1 mg/ml for Y[Aib]EGTFI[Aib]DYSIAMDKIHQQDFVNWLLAQKGKKNDWKHNITQ-OH [Example 9, (Aib^2, 8)hGIP(1-42)-OH]
Found: 9.2

Lookup: Specify half-life at 0.1 mg/ml for YAPGTFISDYSIA[Ac6c]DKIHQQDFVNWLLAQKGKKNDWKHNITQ-OH [Example 91, (Pro^3, A6c^14)hGIP(1-42)-OH] and stop.
Found: 1

###

experiment: Rat plasma half-life assay; assay type: in vitro ADME; conditions: rat plasma, 37° C., LC-MS; read-out: Rat Plasma T½ (converted)
*1 amine or outer side, *2 acyl side, *3 side chain or, on linkers, in order; H or OH if unused. Where no end group is shown, it is not given here. [ ]: non-standard residue; d: D form. X2 = O=C([C@@H]1CC(O)CN1[*:1])[*:2]; Tic = O=C(O)[C@@H]1Cc2ccccc2CN1; Ac6c = NC1(C(=O)O)CCCCC1; Nle = CCCC[C@H](N)C(=O)O; Ac5c = NC1(C(=O)O)CCCC1; Aib = CC(C)(N)C(=O)O
Measured half-life at 0.1 mg/ml of individual entries
Respond with the bare value in h.

Example results:
YA[Tic]GTFISDY[Ac5c]IA[Ac6c]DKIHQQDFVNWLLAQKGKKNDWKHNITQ-OH [Example 89, (Tic^3, A5c^11, A6c^14)hGIP(1-42)-OH]
11.8
H-YA[X2]GTFISDYSIA[Ac6c]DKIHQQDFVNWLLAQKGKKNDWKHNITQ-OH [Example 84, (4Hyp^3, A6c^14)hGIP(1-42)-OH]
1.9

Now, please, on to the next substance.
Lookup: Give me measured half-life at 0.1 mg/ml, please, for this substance: Y[Aib]EGTF[Ac6c]SDYSIA[Nle]DKIHQQDFVNWLLAQKGKKNDWKHN[Ac6c]TQ-OH [Example 28, (Aib^2, A6c^7, 40, Nle^14)hGIP(1-42)-OH]
Found: 11.6

###

assay: Human plasma half-life assay; assay type: in vitro ADME; settings: human, plasma; same experimental conditions as Table 2; read-out: human plasma half-life (converted)
assay metric: half-life at 0.1 mg/ml (h)
Express the result in h but write the number alone.

Lookup: Dear colleague, please send me the reported half-life at 0.1 mg/ml for H-YAPGTFISDYSIAMDKIHQQDFVNWLLAQKGKKNDWKHNITQ-OH [[Pro^3]hGIP(1-42)-OH, reference compound] when you can.
Found: 10.8

###

assay: Human plasma half-life assay; assay type: in vitro ADME; conditions: human plasma, 37° C., LC-MS; read-out: Human Plasma T½ (converted)
Where no end group is shown, it is not given here. [ ]: non-standard residue; d: D form. The star is where a group is joined. Myristoyl = CCCCCCCCCCCCCC(=O)*; Ac6c = NC1(C(=O)O)CCCCC1; Orn = NCCC[C@H](N)C(=O)O
assay metric: half-life (h)
Answer with a number only, understood to be in h.

Lookup: Specify measured half-life for [Orn](Myristoyl)AEGTF[Ac6c]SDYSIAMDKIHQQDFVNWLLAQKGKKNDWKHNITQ-OH [Example 103] .
Found: 6.8

###

Test: Human plasma half-life assay
Assay type: in vitro ADME
Conditions: human plasma, 37° C., LC-MS; read-out: Human Plasma T½ (converted)
Description: B. Human and Rat Plasma Half-Life Assay 50 μL was removed at various times, like at 0, 1, 2, 3, 4, 8, 24, 32, 48, 56, 72 hours, mixed with 5 μL formic acid and 150 μL acetonitrile in a microcentrifuge tube, vertexed, and centrifuged for 10 minutes at 10K rpm. The supernatant was transferred to an injection vial and analyzed by LC-MS. The LC-MS system consisted of an API4000 mass spectrometer with an ESI probe. Positive ion mode and full scan detection were used. […]
Where no end group is shown, it is not given here. [ ]: non-standard residue; d: D form. The star is where a group is joined. Ac6c = NC1(C(=O)O)CCCCC1; X1 = CCCN1C(=O)CC(*)C1=O; Ac5c = NC1(C(=O)O)CCCC1; Aib = CC(C)(N)C(=O)O
assay metric: half-life at 0.1 mg/ml (h)
Give the number; h is assumed, so skip it.

As a guide, the following entries are already answered.
YAPGTFISDY[Ac5c]IA[Ac6c]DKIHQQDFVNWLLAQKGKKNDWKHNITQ-OH [Example 102, (Pro^3, A5c^11, A6c^14)hGIP(1-42)-OH]
54.1
Y[Aib]EGTFISDYS[Ac5c]AMDKIHQQDFVNWLLAQKGKKNDWKHNITQ-OH [Example 7, (Aib^2, A5c^12)hGIP(1-42)-OH]
37.1
Y[Ac5c]EGTF[Ac5c]SDYSIA[Ac6c]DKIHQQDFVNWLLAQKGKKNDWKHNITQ-OH [Example 56, (A5c^2,7, A6c^14)hGIP(1-42)-OH]
16

Lookup: Identify measured half-life at 0.1 mg/ml corresponding to Y[Aib]EGTF[Ac6c]SDYSIAMDKIHQQDFVNWLLAQKC(X1)KKNDWKHNITQ-OH [Example 90, [Aib^2, A6c^7, Cys(Psu)^31]hGIP(1-42)-OH]
Found: 11.3
